# targetSystem: T1, full-length CD25 (human, UniProt P01589 22-186, limits assumed)
# T1 construct: The assays used soluble 'full-length CD25'; also called Hu CD25; IL-2 receptor alpha chain
# T1 chain: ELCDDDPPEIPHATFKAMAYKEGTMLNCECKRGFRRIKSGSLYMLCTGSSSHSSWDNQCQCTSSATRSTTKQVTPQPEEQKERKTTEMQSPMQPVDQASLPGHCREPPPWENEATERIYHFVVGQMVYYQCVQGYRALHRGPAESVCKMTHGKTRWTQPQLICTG
# testProtocol: Octet biolayer interferometry, human IgG1 against CD25
measurementKind: Kd (nM)

binder="YU392-G09 (antibody, Tested as full-length human IgG1) scFv: QVQLVQSGAEVKKPGSSVKVSCKASGGTFSSYAISWVRQAPGQGLEWMGGIIPIFGTANYAQKFQGRVTITADESTSTAYMELSSLRSEDTAVYYCARDGAGNYDILTGDRSEDYYYYYGMDVWGQGTTVTVSSSYELTQPPSASGAPGQRVSISCSGGYSNIGSNTVNWYQQLPGAAPKFLIYSDNQRPSGVPDRFSGSKSGTSASLAISGLQSEDEADYYCATWDDSLNGPVFGGGTKLTVL" numericresult=20.2
binder="YU398-A11 (antibody, Tested as full-length human IgG1) scFv: PGRSLRLSCAASGFTFSSYGMHWVRQAPGKGLEWVAVISYDGSNKYYADSVKGRFTISRDNSKNTLYLQMNSLRAEDTAVYYCAKGQGDGMDVWGQGTTVTVSSYELTQPPSASGTPGQRVTISCSGSSSNVGSRTVSWFQQLPGTAPKLLIYSNNLRPSGVPDRFSGSKSGTSASLAISGLQSEDEADYYCAAWDDSLIGHVFGTGTKVTVV" numericresult=12.1
binder="YU397-D01 (antibody, Tested as full-length human IgG1) scFv: PSGTLSLTCAVSGGSISSSNWWSWVRQPPGKGLEWIGEIYHSGSTNYNPSLKSRVTISVDKSKNQFSLKLSSVTAADTAVYYCARARGGRYFDYWGQGTLVTVSSDIVLTQSPSFLSASVGDRVTITCRASQGISTYLAWYQQKPGTAPKVLMYAASTLHSGVPSRFSGSGSGTEFTLTISSLQPEDFAIYYCQQLNGYPTTFGGGTRVEIK" numericresult=3.86
binder="YU401-B01 (antibody, Tested as full-length human IgG1) scFv: PGSSVKVSCKASGGTFSSYAISWVRQAPGQGLEWMGGIIPIFGTANYAQKFQGRVTITADESTSTAYMELSSLRSEDTAVYYCAREMYYYYGMDVWGQGTTVTVSSDIVMTQSPSSLSASVGDRVTITCRASQSIITYLNWYQQKPGKVPKLLIYAASSLQSGVPSRFSGSGSGTDFTLTISSLQPEDFATYYCQQSYSTPPTFGQGTKLEIK" numericresult=70.4
